What MIC was measured for each of the following?
# Test system: Klebsiella pneumoniae
# method_description: Antibacterial activity against Klebsiella pneumoniae after 16 to 18 hrs by serial dilution method
# Format: functional
# measurement_parameters: Klebsiella pneumoniae
Quick reminder: number only, in µg/mL, skip the unit.

Query block: Any idea what MIC was measured for Cc1cccc(OCc2ccccc2-c2nn(CNc3cccc(C(F)(F)F)c3)c(=S)o2)c1 ?
Result block: 6.25

Query block: Any idea what MIC was measured for Cc1cccc(OCc2ccccc2-c2nnc(-c3cccc4ncccc34)o2)c1 ?
Result block: 25

Query block: Any idea what MIC was measured for Cc1ccccc1OCc1ccccc1-c1nn(CNc2cccc(C(F)(F)F)c2)c(=S)o1 ?
Result block: 6.25

Query block: Any idea what MIC was measured for Cc1cccc(CSc2nnc(-c3ccccc3COc3ccc(Cl)cc3)o2)c1 ?
Result block: 12.5

Query block: Any idea what MIC was measured for COc1cc(-c2nnc(-c3ccccc3COc3ccccc3C)o2)cc(OC)c1OC ?
Result block: 6.25

Query block: Any idea what MIC was measured for Cc1ccccc1OCc1ccccc1-c1nnc(-c2ccccc2)o1 ?
Result block: 25

Query block: Any idea what MIC was measured for COc1cc(-c2nnc(-c3ccccc3COc3ccc(C)cc3)o2)cc(OC)c1OC ?
Result block: 6.25

Query block: Any idea what MIC was measured for Cc1ccc(OCc2ccccc2-c2nnc(SCc3ccccc3)o2)cc1 ?
Result block: 25

Query block: Any idea what MIC was measured for Cc1cccc(OCc2ccccc2-c2nn(CNc3ccc(Cl)cc3C(=O)C(F)(F)F)c(=S)o2)c1 ?
Result block: 25
